# measured_on: T1, GFP-9S library array, motif 4 ND N98C;D124Y (synthetic construct, N98C;D124Y)
# T1 chain: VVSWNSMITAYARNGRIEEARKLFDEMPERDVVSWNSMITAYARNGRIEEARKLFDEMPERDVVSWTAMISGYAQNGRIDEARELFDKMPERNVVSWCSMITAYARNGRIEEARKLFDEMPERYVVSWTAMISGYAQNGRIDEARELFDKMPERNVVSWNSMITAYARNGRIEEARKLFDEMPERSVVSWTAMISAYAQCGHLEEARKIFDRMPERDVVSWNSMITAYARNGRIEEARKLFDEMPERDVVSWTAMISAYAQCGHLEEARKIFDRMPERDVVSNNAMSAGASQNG
# assay_name: high-throughput RNA pulldown from lysate on Ni-NTA beads; HRP: 50 mM Tris pH 8, 150 mM NaCl, 1 mM beta-mercaptoethanol, 50 ug/ml BSA, 3 ug/ml yeast RNA, 0.5% heparin; ITC and FP: Tris pH 8, 200 mM KCl, 5% glycerol; MST: 50 mM Tris pH 8, 200 mM NaCl, 1 mM DTT, BSA, heparin, 0.05% Tween 20
# applied_conditions: tags: N-terminal His-eGFP; label: 5' Cy5
The following binders are shown together with reported Kd values.
Just the number please, in nM, no unit attached.

For AUUAGACGUGA (ssRNA) [Cy5-rpoA-G] , what is its reported Kd?
72.3

For AUUACACGUGA (ssRNA) [Cy5-rpoA] , what is its reported Kd?
56.9
